// data source = paper PMC9295539

assay: Mouse pharmacokinetics, oral gavage, plasma LC-MS/MS; assay type: in vivo; settings: plasma; mouse; single oral dose 50 mg/kg; read-out: average maximum plasma concentration (Cmax)
RECORDED_METRIC: Cmax (µM)
Quick reminder: number only, in µM, skip the unit.

Endpoint output: Cmax of `C=CC(=O)N[C@@H]1CN(c2nc(Nc3cn(C)nc3OC)c3ncn(C)c3n2)C[C@H]1F` . Value?
9.3
